target: Genome polyprotein [1393-1439,E1407V]/[1476-1660,R1508K,A1566M] (dengue virus type 1, UniProt P17763+P33478, A1566M/E1407V/R1508K); construct: 1393-1439; 1476-1660; experiment: Enzyme Inhibition Assay; settings: pH 7.5; 37 °C
Sequence (P17763 1476-1660, looked up, stated change not applied): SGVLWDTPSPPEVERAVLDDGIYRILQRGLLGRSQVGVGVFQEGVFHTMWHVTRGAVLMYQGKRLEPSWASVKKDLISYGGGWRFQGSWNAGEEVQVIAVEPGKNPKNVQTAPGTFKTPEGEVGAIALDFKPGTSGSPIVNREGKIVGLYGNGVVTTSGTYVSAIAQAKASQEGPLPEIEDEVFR
Sequence (P33478 1393-1439, looked up, stated change not applied): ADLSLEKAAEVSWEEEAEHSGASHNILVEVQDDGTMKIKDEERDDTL
pIC50: −log10 of the molar value. Non-standard residues stand in square brackets, D forms with d. Residues, ends and D or L forms follow the SMILES beside them. *: point of attachment. Nle = CCCC[C@H](N)C(=O)O; Bz = O=C(c1ccccc1)*
Parameter threshold = 4. Response is 1 when pIC50 meets or exceeds it, else 0.

[
  {
    "compound": "c1ccc2c(Nc3ccc4c(c3)CNCC4)nnc(Nc3ccc(C4=NCCN4)cc3)c2c1",
    "qualitative-label": 0
  },
  {
    "compound": "c1ccc2c(Nc3ccc4c(c3)CCNC4)nnc(Nc3ccc(C4=NCCN4)cc3)c2c1",
    "qualitative-label": 0
  },
  {
    "compound": "CC1CNC(c2ccc(Nc3nnc(Nc4ccc(C5=NC(C)CN5)cc4)c4ccccc34)cc2)=N1 (stereo not given)",
    "qualitative-label": 1
  },
  {
    "compound": "Nc1ccc2c(Nc3ccc(C4=NCCN4)cc3)nnc(Nc3ccc(C4=NCCN4)cc3)c2c1",
    "qualitative-label": 0
  },
  {
    "compound": "NCc1ccc(Nc2nnc(Nc3ccc(C4=NCCN4)cc3)c3ccccc23)cc1",
    "qualitative-label": 1
  },
  {
    "compound": "c1ccc2c(Nc3ccc(C4=NCCN4)cc3)nnc(Nc3ccc(C4=NCCN4)cc3)c2c1",
    "qualitative-label": 1
  },
  {
    "compound": "COC(=O)c1ccc(-c2ccc(Nc3nnc(Nc4ccc(C5=NCCN5)cc4)c4ccccc34)cc2)cc1",
    "qualitative-label": 1
  },
  {
    "compound": "CCCC[C@H](NC(=O)c1ccccc1)C(=O)N[C@@H](CCCCN)C(=O)N[C@@H](CCCNC(=N)N)C(=O)N[C@H](C=O)CCCNC(=N)N [Bz-Nle-Lys-Arg-Arg-H] (Bz-[Nle]KRR-aldehyde)",
    "qualitative-label": 1
  },
  {
    "compound": "c1ccc(-c2ccc(Nc3nnc(Nc4ccc(C5=NCCN5)cc4)c4ccccc34)cc2)cc1",
    "qualitative-label": 1
  },
  {
    "compound": "c1ccc2c(Nc3ccc(C4=NC5CCCCC5N4)cc3)nnc(Nc3ccc(C4=NC5CCCCC5N4)cc3)c2c1 (stereo not given)",
    "qualitative-label": 1
  }
]

* * *

Catalogue of molecules with associated IC50
molecular target: Genome polyprotein [1424-1463]/[1502-1685] (West Nile virus); construct: 1424-1463; 1502-1685; experiment: Enzyme Inhibition Assay (IC50) and Fluorescence Quench Assay (KD); conditions: pH 7.5; 37 °C
Sequence (P06935 1424-1463): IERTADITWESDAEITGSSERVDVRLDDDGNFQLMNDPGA
Sequence (P06935 1502-1685): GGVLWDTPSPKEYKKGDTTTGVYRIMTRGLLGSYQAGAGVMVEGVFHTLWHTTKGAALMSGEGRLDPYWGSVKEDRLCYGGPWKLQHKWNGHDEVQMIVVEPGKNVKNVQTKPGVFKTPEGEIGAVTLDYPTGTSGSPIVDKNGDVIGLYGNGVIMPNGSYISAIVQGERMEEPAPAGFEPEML

[
  {
    "molecule": "c1ccc(-c2ccc(Nc3nnc(Nc4ccc(C5=NCCN5)cc4)c4ccccc34)cc2)cc1 [phthalazine-based compound, 2]",
    "measurement-units": "µM",
    "IC50": 3.6
  },
  {
    "molecule": "c1ccc2c(Nc3ccc(C4=NC5CCCCC5N4)cc3)nnc(Nc3ccc(C4=NC5CCCCC5N4)cc3)c2c1 (centres undefined) [phthalazine-based compound, 3]",
    "measurement-units": "µM",
    "IC50": 22
  },
  {
    "molecule": "c1ccc2c(Nc3ccc4c(c3)CCNC4)nnc(Nc3ccc(C4=NCCN4)cc3)c2c1 [phthalazine-based compound, 6]",
    "measurement-units": "µM",
    "IC50": 6.2
  },
  {
    "molecule": "COC(=O)c1ccc(-c2ccc(Nc3nnc(Nc4ccc(C5=NCCN5)cc4)c4ccccc34)cc2)cc1 [phthalazine-based compound, 7]",
    "measurement-units": "µM",
    "IC50": 2.2
  }
]

Source listed as BindingDB's records for doi:10.1016/j.ab.2009.08.013.
